B1: VH:VL chains; a variant is named by its letters at X, in order (parent)
chain 1: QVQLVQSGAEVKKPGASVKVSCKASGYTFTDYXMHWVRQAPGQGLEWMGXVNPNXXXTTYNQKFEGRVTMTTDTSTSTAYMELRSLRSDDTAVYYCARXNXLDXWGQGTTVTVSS
chain 2: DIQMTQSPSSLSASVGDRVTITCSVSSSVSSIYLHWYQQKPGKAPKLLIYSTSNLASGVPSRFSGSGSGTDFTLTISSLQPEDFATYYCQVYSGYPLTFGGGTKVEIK

Variants of: B1
Assay: yeast display scFab, FACS + sequencing
Observed property: non-specific binding call

[[record]]
mutation_code = "YRKRGVGV"
measurement = "binds"

[[record]]
mutation_code = "FRGESAGS"
measurement = "binds"

[[record]]
mutation_code = "YRRKGAGD"
measurement = "binds"

[[record]]
mutation_code = "VREEGDGA"
measurement = "no binding"

[[record]]
mutation_code = "SKKRGAWA"
measurement = "binds"

[[record]]
mutation_code = "VRAGDSVA"
measurement = "no binding"

[[record]]
mutation_code = "YARGADGS"
measurement = "no binding"

[[record]]
mutation_code = "VAGTGSSV"
measurement = "no binding"

[[record]]
mutation_code = "VTKAASWV"
measurement = "no binding"


Just for reference, the emibetuzumab library of Makowski et al. (2022) is where these values come from.
